assay target: Integrin beta-2 (Homo sapiens) + Integrin alpha-M (Homo sapiens) (UniProt P05107+P11215)
Sequence (P05107 whole entry, looked up, other chains not shown): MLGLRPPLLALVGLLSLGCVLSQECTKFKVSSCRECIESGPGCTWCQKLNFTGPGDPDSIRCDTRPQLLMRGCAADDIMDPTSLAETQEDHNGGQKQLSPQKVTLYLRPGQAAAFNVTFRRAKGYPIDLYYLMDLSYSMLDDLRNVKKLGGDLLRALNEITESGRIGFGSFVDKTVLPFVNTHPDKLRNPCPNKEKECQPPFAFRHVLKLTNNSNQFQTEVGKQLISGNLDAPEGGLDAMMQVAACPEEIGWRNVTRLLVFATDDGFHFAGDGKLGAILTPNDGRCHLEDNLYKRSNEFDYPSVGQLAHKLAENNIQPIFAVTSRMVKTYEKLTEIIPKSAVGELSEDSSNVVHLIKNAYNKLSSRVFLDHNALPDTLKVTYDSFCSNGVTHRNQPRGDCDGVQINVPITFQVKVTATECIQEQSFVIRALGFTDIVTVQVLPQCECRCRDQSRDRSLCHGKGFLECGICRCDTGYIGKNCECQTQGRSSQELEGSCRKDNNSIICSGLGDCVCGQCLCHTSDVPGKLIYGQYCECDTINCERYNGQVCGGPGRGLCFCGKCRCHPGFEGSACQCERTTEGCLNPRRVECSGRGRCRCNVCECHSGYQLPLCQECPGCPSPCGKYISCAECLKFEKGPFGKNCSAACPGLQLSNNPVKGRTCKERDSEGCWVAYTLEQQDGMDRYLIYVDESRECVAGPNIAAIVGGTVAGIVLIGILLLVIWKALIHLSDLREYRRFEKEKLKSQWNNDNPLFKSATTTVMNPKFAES
assay summary: inhibitors of CD11b/CD18 adhesion to fibrinogen, primary screen, K562 cells, luminescence (AID 1497)
stated conditions: ATPlite luminescence, at 10 µM, Mn2+ added to activate the integrin
The campaign covered roughly 93,000 compounds. About 500 (0.54%) were called active.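 Rule for the calls: active = primary inhibition of 50% or more at 10 µM, then 40% or more on retest; inactive = the rest.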 This excerpt belongs to a sample that is enriched for actives.
Hi there, use one of these labels in your reply, thanks! active, inactive

Use these answered entries as a reference point.
INSERT INTO measurements (compound, qualitative_label) VALUES
  ('N#C/C(=C(/O)COC(=O)COc1ccc(Cl)cc1)c1nc2ccccc2[nH]1', 'inactive'),
  ('C/C(=C/C(=O)N1CCN(C)CC1)C(=O)O', 'inactive'),
  ('CCOC(=O)c1c(NC(=O)C2CCN(S(=O)(=O)c3ccc(Cl)cc3)CC2)sc2c1CCCC2', 'inactive');

Task: For N#Cc1c(NC(=O)c2ccc(N3CCOCC3)c([N+](=O)[O-])c2)sc2c1CCCC2 , which call appears in the assay record?
Output: inactive

Task: For O=C(Cn1cnc2ccccc21)N/N=C/c1ccco1 , which call appears in the assay record?
Output: inactive

Task: For COc1ccc(C2c3c(C)nn(-c4ccccc4)c3NC(=O)N2c2ccccc2)cc1 (stereo unspecified) , which call appears in the assay record?
Output: inactive

Task: For O=C(Cc1coc2ccc3ccccc3c12)NCc1cccs1 , which call appears in the assay record?
Output: inactive

Task: For Cc1cc(C)c(NC(=O)c2oc3ccccc3c2COc2ccccc2)c(C)c1 , which call appears in the assay record?
Output: inactive

Task: For CCc1c(C)sc(NC(=O)c2ccc(Br)o2)c1C(=O)OC , which call appears in the assay record?
Output: inactive

Task: For COc1ccc(NC(=O)CC2C(=O)OCC3CCCCN32)cc1Cl (stereo unspecified) , which call appears in the assay record?
Output: inactive

###

assay target: Integrin beta-2 (Homo sapiens) + Integrin alpha-M (Homo sapiens) (UniProt P05107+P11215)
assay summary: inhibitors of CD11b/CD18 adhesion to fibrinogen, primary screen, K562 cells, luminescence (AID 1497)
stated conditions: ATPlite luminescence, at 10 µM, stronger effect = higher value, Mn2+ added to activate the integrin
Hit rate of the full screen: of about 93,000 compounds, about 500 (0.54%) were called active. What follows is part of a selection rich in actives, with near analogues and random picks from the rest.
reported property: inhibition (%)
One number for each entry, in %.

Hi, could you look up inhibition for each item in my list?
1. Cc1cccc(NC(=O)Cn2c(=O)n(Cc3ccccc3)c(=O)c3c(C)c(C)sc32)c1
2. COc1cc2c3c(c1)/C(=C1/SC(=S)NC1=O)C(=O)N3C(C)(C)C=C2C
3. Cc1ccc(-c2nn(-c3ccccc3)cc2C(=O)Nc2cccc(S(=O)(=O)N3CCOCC3)c2)cc1
4. Cc1ccc(NC(=O)CC2C(=O)N(Cc3ccccc3)C(=S)N2NC(=O)c2cccc(F)c2)c(C)c1 (configuration not stated)
5. COc1ccccc1N=Cc1c(O)c2ccccc2oc1=O

Output:
-17.5
92.6
-5.6
1.5
6

Hi, could you look up inhibition for each item in my list?
1. CCCOc1cc(C)c(S(=O)(=O)n2nnc3ccccc32)cc1C
2. C/C(=N\NC(=O)CCn1nc(C)cc1C)C(C)(C)C
3. COc1ccc(Cl)cc1NC(=O)CNc1ccccc1F
4. CSCC[C@H](NC(=O)OC(C)(C)C)C(=O)N/N=C/c1cc2ccc(C)cc2nc1Cl
5. CCc1nc(C)cn1S(=O)(=O)c1cc(OC)c(C)cc1C
6. CC(=O)N1C(C)c2ccccc2C(C)(C)CC12CCCCC2 (configuration not stated)
7. O=C(N/N=C/c1cccc([N+](=O)[O-])c1)C1CC(=O)N(c2ccc(Br)cc2)C1 (configuration not stated)
8. CC(Sc1nc2cc(Cl)ccc2s1)C(=O)Nc1ccc2c(c1)OCO2 (configuration not stated)

Output:
1. 2.3
2. 1
3. 0.4
4. 23.4
5. 51.2
6. -35.8
7. -4.8
8. 82.9

These entries and their values trace back to PubChem BioAssay AID1497.
